Known β-galactosidase activity of a selection of binders
# Tested System: FvTox1 in the pLexA vector (LexA fusion) (Fusarium virguliforme)
# Experiment: two-hybrid; LexA two-hybrid system, yeast EGY48 [pSH18-34]; FvTox1 in pLexA, peptides in pB42AD; reporters LacZ and LEU2; quantitative β-galactosidase activity (Miller units), three biological replications

{"Binder": "GGGGSGGGGSGGGGSVENKTRYHDREVGGGGS [synthetic FvTox1-interacting peptide 2 in pB42AD (no flanking cysteines)]", "β-galactosidase activity (Miller units)": 5.88}
{"Binder": "synthetic FvTox1-interacting fusion peptide 5 in pB42AD (no flanking cysteines) (designed binder) GGGGSGGGGSGGGGSSYLPETIYEYRLGGGGSELGGGGSGGGGSGGGGSVENKTRYHDREVGGGGS", "β-galactosidase activity (Miller units)": 3.11}
{"Binder": "synthetic FvTox1-interacting fusion peptide 9 in pB42AD (no flanking cysteines) (designed binder) GGGGSGGGGSGGGGSSYLPETIYEYRLGGGGSELGGGGSGGGGSGGGGSVENKTRYHDREVGGGGSLEGGGGSGGGGSGGGGSHEGAWHNYARSVGGGGSGTGGGGSGGGGSGGGGSSNGRVADGGGGS", "β-galactosidase activity (Miller units)": 5.64}
